The following compounds are listed with their measured Inhibition (%) of PAF-induced bronchoconstriction values.
- Test system: Platelet Activating Factor (PAF)-induced bronchoconstriction
- Test Name: Effect on Bronchoconstriction Induced by Platelet Activating Factor (PAF) in Guinea Pigs (Konzett-Rossler method)
- Assay type: in vivo, Male Hartley guinea pigs
- Conditions: guinea pig; drug 10 mg/Kg orally 1 hour before PAF (1 μg/Kg, i.v.); recorded for 15 minutes
Give the number; % is assumed, so skip it.

>  <Structure Smiles String>
NS(=O)(=O)CC1(COc2ccc3nccn3n2)CCCC1

>  <Observed>
78

$$$$

Any idea what its Inhibition (%) of PAF-induced bronchoconstriction is? The compound is NS(=O)(=O)CC1(COc2ccc3nccn3n2)CC1
48

Which measured Inhibition (%) of PAF-induced bronchoconstriction value corresponds to NS(=O)(=O)CC1(COc2ccc3nccn3n2)CCCCC1 ?
72

Which Inhibition (%) of PAF-induced bronchoconstriction value is on record for NS(=O)(=O)CC1(COc2ccc3nccn3n2)COC1 ?
51

GET /values?readout=Inhibition (%) of PAF-induced bronchoconstriction&item= NS(=O)(=O)CC1(COc2ccc3nccn3n2)CCC1
58

May I ask what Inhibition (%) of PAF-induced bronchoconstriction has been recorded for NS(=O)(=O)CC1(CSc2ccc3nccn3n2)CCC1 ?
40
